Recorded values, source patent US20230295345A1.

# target.or.system: T1, mouse TMPRSS6 expressed on HEK293T cells (MoTMPRSS6-(His)6) (mouse, UniProt Q9DBI0 1-811)
# T1 construct: stably expressed in HEK293T cells; also called murine TMPRSS6
# T1 sequence: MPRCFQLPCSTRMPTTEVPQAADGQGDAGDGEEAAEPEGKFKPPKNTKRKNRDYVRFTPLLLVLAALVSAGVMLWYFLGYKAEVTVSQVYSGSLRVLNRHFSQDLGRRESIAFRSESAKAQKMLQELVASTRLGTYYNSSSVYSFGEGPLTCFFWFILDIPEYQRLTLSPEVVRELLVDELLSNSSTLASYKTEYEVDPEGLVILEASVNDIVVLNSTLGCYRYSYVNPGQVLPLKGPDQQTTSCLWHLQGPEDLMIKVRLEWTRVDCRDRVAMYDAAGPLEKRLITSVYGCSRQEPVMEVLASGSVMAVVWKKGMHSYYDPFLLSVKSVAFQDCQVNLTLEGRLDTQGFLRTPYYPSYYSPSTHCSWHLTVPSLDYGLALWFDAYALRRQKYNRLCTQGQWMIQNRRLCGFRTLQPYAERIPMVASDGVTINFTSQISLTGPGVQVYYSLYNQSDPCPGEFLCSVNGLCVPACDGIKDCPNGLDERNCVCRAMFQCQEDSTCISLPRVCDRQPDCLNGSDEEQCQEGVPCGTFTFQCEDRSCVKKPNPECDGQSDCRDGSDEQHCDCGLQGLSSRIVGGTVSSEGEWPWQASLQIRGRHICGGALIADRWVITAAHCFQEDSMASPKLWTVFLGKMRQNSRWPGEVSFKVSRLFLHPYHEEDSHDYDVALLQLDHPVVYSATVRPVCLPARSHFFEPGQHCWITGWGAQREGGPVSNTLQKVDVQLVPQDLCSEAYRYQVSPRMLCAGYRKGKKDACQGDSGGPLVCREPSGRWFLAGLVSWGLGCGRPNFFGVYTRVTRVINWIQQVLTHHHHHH
# experimental.details: cell surface ELISA on fixed HEK293T cells expressing mouse TMPRSS6
measured.parameter: binding result

MWTx-003 anti-TMPRSS6 antibody (antibody, mouse IgG2b, kappa, V domains shown, Mouse monoclonal antibody from a hybridoma (ATCC PTA-126761); also called r4K12B (recombinantly expressed version, same HC and LC)) VH: EVQLQQSGAELVKPGASVKLSCTASGFNIEDYYIHWVKERTEQGLEWIGRIDPEDGETTYAPQFQGKATIIPDTSSNTAYMQLSSLTSEDAAVYYCARSIYLDPMDYWGQGTSVTVSS VL: DIVMTQSHKFMSTSVGDRVSITCKASQDVTTAVAWYQQKPGQSPKILIYWATTRHTGVPDRFTGSISGTTYILTISSVQAEDLALYYCQQHYSTPYTFGGGTKLEIKR : binds
MWTx-001 anti-TMPRSS6 antibody (antibody, mouse IgG2a, kappa, V domains shown, Mouse monoclonal antibody from a hybridoma (ATCC PTA-126759)) VH: QVQLQQPGAELAKPGASVKMSCKASGYTFTSYWITWVKQRPGQDLEWIGNIYPGSGSTYYNEKFKSKATLTVDTSSRTAYMQLSSLTSADSAVYYCAPYDSDYAMDYWGQGTSVTVSS VL: DIKMTQSPSSMYASLGERVTITCKASQDINNYLSWFQQKPGKSPKTLIYRANRLVDGVPSRVSGSGSGQDYSLTISSLEYEDVGIYFCLQYDEFPLTFGAGTKLELKR : binds
hzMWTx-001Var anti-TMPRSS6 antibody (antibody, human IgG1, kappa, N297A, V domains shown, Humanized variant of MWTx-001, human IgG1/kappa) VH: EVQLVQSGAEVKKPGASVKVSCKASGYTFTSYWITWVRQAPGQRLEWIGNIYPGSGSTYYNEKFKSKATITRDTSSRTAYMELSSLRSEDTAVYYCAPYDADYAMDYWGQGTLVTVSS VL: DIQMTQSPSSLSASVGDRVTITCKASQDISNYLSWFQQKPGKAPKLLIYRANRLVEGVPSRFSGSGSGTDFTLTISSLQPEDFATYFCLQYDEFPLTFGGGTKVEIKR : binds
hzMWTx-003Var anti-TMPRSS6 antibody (antibody, human IgG1, kappa, L234A L235A, V domains shown, Humanized variant of MWTx-003, human IgG1/kappa) VH: QVQLVQSGAEVKKPGASVKVSCKASGFNIEDYYMHWVRQAPGQRLEWMGRIDPEDAETTYSPKFQGRVTIIPDTSANTAYMELSSLRSEDTAVYYCARSIYLDPMDYWGQGTLVTVSS VL: DIQMTQSPKSLSASVGDRVTITCRASQDVTTALAWYQQKPGQSPKLLIYWATTRHSGVPSRFSGSGSGTDFTLTISSLQPEDFATYYCQQHYSTPYTFGQGTKLEIKR : binds
